# credit: PubChem BioAssay (NCI)

The following compounds are shown together with reported TGI values.
test system: SNB-78 CNS; assay: NCI tumour cell line growth inhibition, 48 h

>  <Compound>
O=c1[nH]cc(F)c(=O)n1C1OC(CO)C(O)C1O (stereo unspecified)

>  <TGI>
> 100 µM

$$$$
>  <Compound>
COCOCC/C=C/C=O

>  <TGI>
> 100 µM

$$$$
>  <Compound>
C=CNC(=O)NC(=O)CSc1nnc(-c2ccccc2NC(=O)C(F)(F)F)c(=O)[nH]1

>  <TGI>
> 100 µM

$$$$
>  <Compound>
CC1(c2ccccc2Cl)C(C#N)C(=O)NC(=O)C1C#N (stereo unspecified)

>  <TGI>
> 100 µM

$$$$
>  <Compound>
COc1cc(C(C)O)c[n+](Cc2ccccc2)c1 (stereo unspecified)

>  <TGI>
> 100 µM

$$$$
>  <Compound>
CCCCC1(C)C=C/C(=C2/C(=O)O/C(=C\C(=O)O)C2=O)O1 (stereo unspecified)

>  <TGI>
> 100 µM

$$$$
